- Tested on: MDA-MB-435 melanoma
- experiment notes: NCI-60 one-dose screen, 48 h (100 = growth as untreated, 0 = no growth, -100 = all killed)
- particulars: 10 µM unless noted
This is part of a sample that, as a whole, favours compounds with a hit. Of some 83,000 tested, about 20% had one in any assay.
In this section, each of the molecules is paired with its reported growth.
A number alone suffices; assume %.

Example entries begin here.
molecule: COc1cc2c(cc1OCc1ccccc1)C(CC(C)C)=[N+](C)CC2
reported property: growth
recorded value: 96.6
--
molecule: O=NNc1ccccn1
reported property: growth
recorded value: 111
--
molecule: C/C(Cc1ccc(Cl)cc1)=C(\c1ccc(OCCN2CCOCC2)cc1)c1ccc(OC(=O)Cc2ccccc2)cc1
reported property: growth
recorded value: 98.6
--
molecule: CC1=C(CNO)C2=C(C)C3(CC3)[C@@](C)(O)C(=O)C2=C1
reported property: growth
recorded value: 92.1
--
molecule: Clc1ccc(CSC(Cn2ccnc2)c2ccc(Cl)cc2Cl)cc1 (centres undefined)
reported property: growth
recorded value: 31.4
--
molecule: CCCCCCCCOC(=O)CCN1CC1
reported property: growth
recorded value: 105

Asked: Provide measured growth value, entry: `COc1ccc(/C=C\c2cc(OC)c(OC)c(OC)c2)cc1OCC(=O)Nc1nc2ccc(OC(F)(F)F)cc2s1`
Given back: -30.2

Asked: Give the measured growth for `CC(C)=CCC[C@H](C(=O)O)[C@@H]1CC[C@]2(C)C3=C(CC[C@@]12C)[C@@]1(C)CC[C@H](O)C(C)(C)[C@@H]1CC3`
Given back: 103

Asked: Let me know recorded growth for `COC(=O)[C@@H](C)C[C@H](Cc1ccccc1)NC(=O)c1csc([C@@H](C[C@H](C(C)C)N(C)C(=O)[C@@H](NC(=O)[C@H]2CCCCN2C)c2ccc(F)cc2)OC(C)=O)n1` , thanks.
Given back: -27.7

---

- System: MCF7 breast
- experiment notes: NCI-60 one-dose screen, 48 h (100 = growth as untreated, 0 = no growth, -100 = all killed)
- particulars: 10 µM unless noted
The panel holds about 83,000 compounds, 20% with a hit somewhere; the sample as a whole holds those more often.
We'd kindly ask you to apply these growth classes: lower band: < 10%; central band: ≥ 10% and < 80%; upper band: ≥ 80%

Solved cases below.
compound: CC(=O)[O][Hg][c]1c(N)c(C)cc(C)c1F
label value: lower band
--
compound: OCc1ccc2c(c1)OCO2
label value: upper band
--
compound: CC1=C([Te]c2ccc(O)cc2)C(=O)c2ccccc2C1=O
label value: lower band
--
compound: Cn1cc(C2=C(c3cn(C4CCN(Cc5ccccn5)CC4)c4ccccc34)C(=O)NC2=O)c2ccccc21
label value: central band
--
compound: C/C(Cc1ccc(Cl)cc1)=C(\c1ccc(OCCN2CCOCC2)cc1)c1ccc(OC(=O)Cc2ccccc2)cc1
label value: central band

Asked: Quick check: band for `CC[C@H](C)[C@H](NC(=O)NC(C)(C)C)C(=O)N(C)[C@H](C[C@@H](OC(C)=O)c1nc(C(=O)N[C@@H](Cc2ccccc2)C[C@H](C)C(=O)OC)cs1)C(C)C`
Given back: central band

Asked: Please report the category associated with `COc1ccc(Nc2ccc([N+](=O)[O-])cc2[N+](=O)[O-])cc1CN(CCCl)CCCl` , nothing else.
Given back: central band

Asked: Category lookup for the compound `C=C1C(=O)O[C@H]2[C@H]1CC/C(COC(=O)C(=O)c1cn(Cc3ccccc3)c3ccccc13)=C\CC[C@@]1(C)O[C@@H]21`
Given back: lower band

Asked: Assign a bin to ClCCN(CCCl)c1nc(Cl)c(C2CC(c3ccccc3)=NN2c2cc(Cl)cc(Cl)c2)s1 (stereo not drawn)
Given back: upper band

Asked: // bin(item) where item = `COc1cc2c(cc1OCCCCCn1c(-c3ccco3)nc3ccccc31)N=C[C@@H]1CCCN1C2=O`
Given back: central band

Asked: # bin lookup: classify `Clc1cccc(Cl)c1Cl` by its growth
Given back: upper band

Asked: Into which category would you place `CC1(C)N=C(N)N=C(N)N1c1ccc(CCC(=O)Nc2ccc(S(=O)(=O)F)cc2)c(Cl)c1` ?
Given back: central band

Asked: Looking at `O=C(CN1CCN(C(=O)c2ccco2)CC1)Nc1ccc(Cl)cc1C(=O)c1ccccc1Cl` , which class would you pick?
Given back: upper band

Asked: Bin? `CO[C@H]1CC[C@@]2(C)C(=CC[C@@H]3[C@@H]2CC[C@]2(C)C(=O)C(=O)C[C@@H]32)C1`
Given back: upper band

Asked: Which class is correct for the following compound? `O=C(CCl)c1ccc([N+](=O)[O-])o1`
Given back: central band

Asked: Kindly state the category for this compound: `COC(=O)[C@@H](C)C[C@H](Cc1ccccc1)NC(=O)c1csc([C@@H](C[C@H](C(C)C)N(C)C(=O)C2(NC(=O)[C@H]3CCCCN3C)CCC2)OC(C)=O)n1`
Given back: central band

Asked: State the class of the compound shown: `CC(=O)OCC1O[C@@H]([S-])C(OC(C)=O)[C@H](OC(C)=O)[C@@H]1OC(C)=O.[Au+].c1ccc(CN2[CH-]N(Cc3ccccc3)C(c3ccccc3)=C2c2ccccc2)cc1`
Given back: lower band

---

- System: HCT-15 colon
- experiment notes: NCI-60 one-dose screen, 48 h
- particulars: 10 µM unless noted
Compounds without any hit were thinned out: in the full panel of roughly 83,000, 20% have a hit. Active and inactive are the calls of the source. How the source made its calls: active means growth percent below 10; inactive means the rest.
The reply should be one of these categories: Y (active), N (inactive)

Example cases with answers are listed next.
structure as smiles: Oc1c(O)c(Cl)c(Cl)c(Cl)c1Cl
tested system: HCT-15 colon
label value: N
--
structure as smiles: CCOC(=O)[C@@H](C)C[C@H](Cc1ccccc1)NC(=O)c1nc([C@@H](C[C@H](C(C)C)N(C)C(=O)[C@@H](NC(=O)[C@H]2CCCCN2C)C(C)C)OC(C)=O)sc1CCOCc1ccccc1
tested system: HCT-15 colon
label value: Y
--
structure as smiles: COC(=O)[C@@H](C)C[C@H](Cc1ccccc1)NC(=O)c1csc([C@@H](C[C@H](C(C)C)N(C)C(=O)[C@H](C)NC(=O)[C@H]2CCCN2C)OC(C)=O)n1
tested system: HCT-15 colon
label value: N

Asked: Fill in: this test's call for `O=C(CCCC1CCCCC1)OCC(Cl)(Cl)Cl` is ___
Given back: N

---

- System: HS 578T breast
- experiment notes: NCI-60 one-dose screen, 48 h (100 = growth as untreated, 0 = no growth, -100 = all killed)
- particulars: 10 µM unless noted
- Method: Growth inhibition of the HS 578T human tumor cell line is measured as a screen for anti-cancer activity. Cells are grown in 96 well plates and exposed to the test compound for 48 hours. Compounds are tested at a single concentration, which is 10^-5 M for most compounds. The reported endpoint is percent growth (GI% or GIPRCNT), where numbers from 0 - 100% represent growth inhibition, and numbers from -100% - 0 represent cell death. For example, a value of 40 represents 60% growth inhibition. […]
The panel holds about 83,000 compounds, 20% with a hit somewhere; the sample as a whole holds those more often.
// bucketize growth: group 1: < 40%; group 2: ≥ 40% and < 90%; group 3: ≥ 90%

Use the examples below as a reference point.
compound: CCOC(=O)[C@@H](C)C[C@H](Cc1ccccc1)NC(=O)c1csc([C@@H](C[C@H](C(C)C)N(C)C(=O)[C@H](CCC(C)C)NC(=O)[C@H]2CCCCN2C)OC(C)=O)n1
label value: group 1
--
compound: CCCCC1(CCC)C(=O)NC(=S)NC1=O
label value: group 3
--
compound: Cc1cc(C)cc(Nc2nc3c(s2)CC[C@@]2(C)C3=CC[C@@H]3[C@@H]2CC[C@]2(C)C(=O)CC[C@@H]32)c1
label value: group 2
--
compound: O=C1N[C@@H]2[C@@H](O)[C@@H](O)[C@H](O)C[C@H]2c2cc3c(c(O)c21)OCO3
label value: group 1
--
compound: CN(C)C(=O)Oc1ccccc1-c1ccccc1
label value: group 3
--
compound: C=CC[PH+](c1ccccc1)c1ccccc1.C=CC[PH+](c1ccccc1)c1ccccc1.[Cl][Pt][Cl]
label value: group 2
--
compound: COc1cccc2c1c(C(=O)C(=O)Nc1ccn[nH]1)cn2Cc1ccc(F)cc1
label value: group 3
--
compound: Cc1ccc(S(=O)(=O)F)cc1C(=O)O
label value: group 3

Asked: Please let me know in which category the item `N#C[Se]CCN1C(=O)c2ccccc2C1=O` belongs.
Given back: group 1

Asked: Category of `CC[C@H](C)[C@H](NC(=O)[C@H]1CCCCN1C)C(=O)N(C)[C@H](C[C@@H](OC(C)=O)c1cccc(C(=O)N[C@@H](Cc2ccccc2)C[C@H](C)C(=O)O)n1)C(C)C` :
Given back: group 1

Asked: Which of the defined bands does the recorded growth of `CC(=O)[O][Hg][c]1c(N)c(C)cc(C)c1F` sit within?
Given back: group 1

Asked: Class (by measured growth) for `COC(=O)N[C@H]1CCc2c(Br)c(OC)c(OC)c(OC)c2-c2ccc(SC)c(=O)cc21`
Given back: group 1

Asked: Determine which band this compound sits in: `Cc1c(O)c(CN(CCCl)CCCl)cc(CN(CCCl)CCCl)c1O`
Given back: group 2

Asked: Textbook exercise: identify the category of the compound given here, CC1CCCC(C[N+](C)(C)C)C1=O (centres undefined) , according to its measured value.
Given back: group 3

Asked: Class (by measured growth) for O=P1(NCCCl)OCCCN1CCCl (centres undefined)
Given back: group 3

Asked: Which category fits this record: O=C(O)C(O)C(O)C1[O][Sb]([c]2ccc([N+](=O)[O-])cc2)[O]C1CO (centres undefined)
Given back: group 3
